assay: Apparent permeability across apical to basolateral side in human Calu3 cells

# MOLECULE, Papp A→B (×10⁻⁶ cm/s)
records = [
    ("CCn1cc(C(=O)O)c(=O)c2cc(F)c(N3CCNCC3)cc21", 0.6),
    ("COc1c(N2C[C@@H]3CCCN[C@@H]3C2)c(F)cc2c(=O)c(C(=O)O)cn(C3CC3)c12", 5),
    ("Cc1c(F)c(N2CCNC(C)C2)cc2c1c(=O)c(C(=O)O)cn2C1CC1 (stereo not drawn)", 3.1),
]
